In this section we review reported DC50 values for a set of compounds.
Target: HiBit-BRM fusion protein (Homo sapiens, UniProt P51531)
Construct: expressed in transfected cells
Sequence (P51531 whole entry, the tested form may be a part): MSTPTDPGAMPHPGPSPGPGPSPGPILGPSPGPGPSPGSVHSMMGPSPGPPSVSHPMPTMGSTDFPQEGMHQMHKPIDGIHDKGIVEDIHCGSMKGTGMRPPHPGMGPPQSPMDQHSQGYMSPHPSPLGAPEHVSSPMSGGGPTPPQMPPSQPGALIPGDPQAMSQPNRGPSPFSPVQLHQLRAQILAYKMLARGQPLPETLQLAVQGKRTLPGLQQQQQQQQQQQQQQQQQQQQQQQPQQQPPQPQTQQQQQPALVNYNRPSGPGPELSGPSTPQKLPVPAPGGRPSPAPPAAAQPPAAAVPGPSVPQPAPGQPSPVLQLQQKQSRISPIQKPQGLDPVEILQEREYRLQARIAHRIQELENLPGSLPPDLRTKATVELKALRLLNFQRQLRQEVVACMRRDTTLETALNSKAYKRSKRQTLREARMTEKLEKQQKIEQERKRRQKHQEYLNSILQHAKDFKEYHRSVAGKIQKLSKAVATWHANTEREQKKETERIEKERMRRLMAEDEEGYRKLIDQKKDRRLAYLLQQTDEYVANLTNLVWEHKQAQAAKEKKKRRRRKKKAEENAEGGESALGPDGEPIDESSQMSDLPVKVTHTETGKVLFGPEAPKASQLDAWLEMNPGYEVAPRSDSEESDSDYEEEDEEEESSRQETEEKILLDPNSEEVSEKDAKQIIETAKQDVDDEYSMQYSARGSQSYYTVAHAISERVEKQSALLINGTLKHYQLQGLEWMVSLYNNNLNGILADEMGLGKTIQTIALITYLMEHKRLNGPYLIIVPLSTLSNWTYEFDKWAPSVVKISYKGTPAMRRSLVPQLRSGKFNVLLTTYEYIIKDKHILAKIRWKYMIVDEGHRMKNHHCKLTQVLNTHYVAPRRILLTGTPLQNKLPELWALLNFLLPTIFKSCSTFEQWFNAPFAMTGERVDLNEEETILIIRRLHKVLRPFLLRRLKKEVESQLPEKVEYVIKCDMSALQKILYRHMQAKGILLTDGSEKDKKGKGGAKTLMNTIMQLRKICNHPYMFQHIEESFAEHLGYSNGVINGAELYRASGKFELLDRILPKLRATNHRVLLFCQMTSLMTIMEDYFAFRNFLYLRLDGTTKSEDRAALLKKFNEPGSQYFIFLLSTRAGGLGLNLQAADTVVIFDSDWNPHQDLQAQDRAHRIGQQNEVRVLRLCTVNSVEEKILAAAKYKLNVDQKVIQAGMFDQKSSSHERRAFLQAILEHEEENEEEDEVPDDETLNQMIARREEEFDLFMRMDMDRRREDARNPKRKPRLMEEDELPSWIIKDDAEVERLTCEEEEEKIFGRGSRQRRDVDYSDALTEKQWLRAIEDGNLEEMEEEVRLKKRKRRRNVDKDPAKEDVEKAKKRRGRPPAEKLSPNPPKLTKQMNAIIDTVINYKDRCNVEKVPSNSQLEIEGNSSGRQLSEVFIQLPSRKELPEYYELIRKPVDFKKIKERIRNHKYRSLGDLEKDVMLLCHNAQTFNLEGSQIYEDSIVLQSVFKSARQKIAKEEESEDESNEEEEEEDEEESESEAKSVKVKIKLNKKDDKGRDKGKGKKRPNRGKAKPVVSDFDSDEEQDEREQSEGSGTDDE
Assay: HiBiT-BRM cell-based degradation assay (Nano-Glo HiBiT Lytic Detection, 24 h)
Details: HeLa cells expressing HiBiT-BRM, read-out: BRM HiBit Degradation IC50
Protocol: Procedure: A stable HeLa cell line expressing HiBiT-BRM was generated. On day 0, 5000 cells were seeded in 40 μL of media into each well of 384-well cell culture plates. […] The plates were shaken for 10 minutes at room temperature and the bioluminescence read using an EnVision plate reader (PerkinElmer). The degradation % was calculated using the following formula: % degradation=100%−100%×(LumSample−LumLC)/(LumHC−LumLC). […]

CS(=O)(=O)n1ccc(C(=O)NCC(=O)Nc2nc(-c3cccc(-c4ccnc(C5(C(=O)NCCOCCOCCNc6ccc7c(c6)C(=O)N(C6CCC(=O)NC6=O)C7=O)CC5)c4)c3)cs2)c1 (centres unmarked) [Compound 101] ... > 10000 nM

Incoming: What does the record list as DC50 for Cc1ncsc1-c1ccc(CNC(=O)[C@@H]2C[C@@H](O)CN2C(=O)[C@@H](NC(=O)CCCCCCCCCCC(=O)NCc2cccc(-c3cccc(-c4csc(NC(=O)CNC(=O)c5ccn(S(C)(=O)=O)c5)n4)c3)c2)C(C)(C)C)cc1 [Compound 119] ?
Outgoing: 100 to 1000 nM

###

target: HiBit-BRG1 fusion protein (Homo sapiens, UniProt P51532); construct: expressed in transfected cells; assay: HiBiT-BRG1 cell-based degradation assay (Nano-Glo HiBiT Lytic Detection, 24 h); conditions: HeLa, HeLa cells expressing HiBit-BRG1 and LgBit, top dose 30 μM, read-out: BRG1 HiBit Degradation Maximum measured
Sequence (P51532 whole entry, the tested form may be a part): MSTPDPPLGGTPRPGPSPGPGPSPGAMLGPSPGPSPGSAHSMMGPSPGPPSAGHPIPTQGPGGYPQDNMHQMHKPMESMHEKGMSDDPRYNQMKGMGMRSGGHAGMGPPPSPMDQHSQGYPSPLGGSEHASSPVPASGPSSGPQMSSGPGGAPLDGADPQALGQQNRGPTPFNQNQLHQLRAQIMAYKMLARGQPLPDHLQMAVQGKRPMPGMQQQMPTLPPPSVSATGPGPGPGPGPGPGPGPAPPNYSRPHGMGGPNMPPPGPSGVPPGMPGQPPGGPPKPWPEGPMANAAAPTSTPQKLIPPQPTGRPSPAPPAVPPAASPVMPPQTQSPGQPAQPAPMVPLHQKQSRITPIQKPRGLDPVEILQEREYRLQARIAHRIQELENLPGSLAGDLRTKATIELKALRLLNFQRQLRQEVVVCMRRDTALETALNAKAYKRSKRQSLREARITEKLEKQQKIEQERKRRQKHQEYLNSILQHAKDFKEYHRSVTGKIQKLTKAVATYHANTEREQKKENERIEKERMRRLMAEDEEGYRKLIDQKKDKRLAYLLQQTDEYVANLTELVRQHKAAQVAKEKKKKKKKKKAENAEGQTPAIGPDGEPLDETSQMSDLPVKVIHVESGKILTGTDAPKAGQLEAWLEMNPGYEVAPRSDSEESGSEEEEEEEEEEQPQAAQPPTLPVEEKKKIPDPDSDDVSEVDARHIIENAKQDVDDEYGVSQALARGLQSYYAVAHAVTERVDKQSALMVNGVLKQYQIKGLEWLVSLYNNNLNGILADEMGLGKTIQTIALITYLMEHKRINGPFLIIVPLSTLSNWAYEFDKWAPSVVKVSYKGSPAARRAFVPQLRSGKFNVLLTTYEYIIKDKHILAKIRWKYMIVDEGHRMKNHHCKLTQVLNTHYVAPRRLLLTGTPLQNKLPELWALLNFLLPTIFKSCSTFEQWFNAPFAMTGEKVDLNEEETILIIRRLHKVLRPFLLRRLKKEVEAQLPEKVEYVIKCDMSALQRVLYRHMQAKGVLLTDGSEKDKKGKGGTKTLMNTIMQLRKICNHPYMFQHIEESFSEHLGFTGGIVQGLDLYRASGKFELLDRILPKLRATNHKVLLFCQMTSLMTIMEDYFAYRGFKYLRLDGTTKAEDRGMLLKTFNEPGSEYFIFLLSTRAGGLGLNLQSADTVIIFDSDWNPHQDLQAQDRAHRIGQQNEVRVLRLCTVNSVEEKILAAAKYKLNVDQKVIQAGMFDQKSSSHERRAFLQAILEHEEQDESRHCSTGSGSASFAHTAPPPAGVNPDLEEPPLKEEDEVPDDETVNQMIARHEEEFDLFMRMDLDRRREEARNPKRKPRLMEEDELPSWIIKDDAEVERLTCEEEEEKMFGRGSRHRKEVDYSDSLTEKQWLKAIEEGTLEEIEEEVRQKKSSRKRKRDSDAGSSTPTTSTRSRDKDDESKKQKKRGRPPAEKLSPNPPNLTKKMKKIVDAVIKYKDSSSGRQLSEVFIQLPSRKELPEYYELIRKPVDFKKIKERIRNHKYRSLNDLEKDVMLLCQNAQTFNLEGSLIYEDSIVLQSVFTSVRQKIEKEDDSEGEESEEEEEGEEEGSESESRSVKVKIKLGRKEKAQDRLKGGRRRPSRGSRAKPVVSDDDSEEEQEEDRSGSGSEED
measured_property: Dmax

CS(=O)(=O)n1ccc(C(=O)N[C@@H](COCc2ccc(C(=O)NCCCCNc3ccc4c(c3)C(=O)N(C3CCC(=O)NC3=O)C4=O)cc2)C(=O)Nc2nc(-c3ccccc3)cs2)c1 (stereo partly drawn) [Compound 242] ... 50 to 75%
Cc1ncsc1-c1ccc(CNC(=O)[C@@H]2C[C@@H](O)CN2C(=O)[C@@H](NC(=O)CCC(=O)NCc2cccc(-c3cccc(-c4csc(NC(=O)CNC(=O)c5ccn(S(C)(=O)=O)c5)n4)c3)c2)C(C)(C)C)cc1 [Compound 63] ... < 50%
CS(=O)(=O)n1ccc(C(=O)N[C@@H](CCOCCCC(=O)N2CC(Oc3ccc4c(c3)C(=O)N(C3CCC(=O)NC3=O)C4=O)C2)C(=O)Nc2nc(-c3ccccc3)cs2)c1 (stereo partly drawn) [Compound 256] ... < 50%
CS(=O)(=O)n1ccc(C(=O)NCC(=O)Nc2nc(-c3cccc(-c4ccnc(N5CCN(C(=O)C6CC6CNC(=O)COc6ccc7c(c6)C(=O)N(C6CCC(=O)NC6=O)C7=O)CC5)c4)c3)cs2)c1 (stereo not drawn) [Compound 39] ... < 50%
Cc1ncsc1-c1ccc(CNC(=O)[C@@H]2C[C@@H](O)CN2C(=O)[C@@H](NC(=O)CCCCC(=O)NCCCC[C@H](NC(=O)c2ccn(S(C)(=O)=O)c2)C(=O)Nc2nc(-c3ccccc3)cs2)C(C)(C)C)cc1 [Compound 264] ... < 50%
CS(=O)(=O)n1ccc(C(=O)NCC(=O)Nc2nc(-c3cccc(-c4cccc(CNC(=O)CCOCCOCCOc5ccc6c(c5)C(=O)N(C5CCC(=O)NC5=O)C6=O)c4)c3)cs2)c1 (stereo not drawn) [Compound 55] ... 50 to 75%
Cc1ncsc1-c1ccc(CNC(=O)[C@@H]2C[C@@H](O)CN2C(=O)[C@@H](NC(=O)COCCOCCOCCNC(=O)C2(c3cc(-c4cccc(-c5csc(NC(=O)CNC(=O)c6ccn(S(C)(=O)=O)c6)n5)c4)ccn3)CC2)C(C)(C)C)cc1 [Compound 110] ... > 75%
Cc1ncsc1-c1ccc(CNC(=O)[C@@H]2C[C@@H](O)CN2C(=O)[C@@H](NC(=O)COCCOCC(=O)N2CCN(c3cc(-c4cccc(-c5csc(NC(=O)CNC(=O)c6ccn(S(C)(=O)=O)c6)n5)c4)ccn3)CC2)C(C)(C)C)cc1 [Compound 75] ... > 75%
CN(CCNC(=O)COc1cccc2c1C(=O)N(C1CCC(=O)NC1=O)C2=O)CCNC(=O)c1ccc(COC[C@H](NC(=O)c2ccn(S(C)(=O)=O)c2)C(=O)Nc2nc(-c3ccccc3)cs2)cc1 (stereo partly drawn) [Compound 175] ... < 50%
CN(CCNC(=O)CCCOCC[C@H](NC(=O)c1ccn(S(C)(=O)=O)c1)C(=O)Nc1nc(-c2ccccc2)cs1)CCNC(=O)COc1cccc2c1C(=O)N(C1CCC(=O)NC1=O)C2=O.O=CO (stereo partly drawn) [Compound 252, formic acid] ... < 50%

Incoming: What value of Dmax on HiBit-BRG1 fusion protein (Homo sapiens, UniProt P51532) does CS(=O)(=O)n1ccc(C(=O)NCC(=O)Nc2nc(-c3cccc(-c4ccnc(C5(C(=O)NCCCCCCNc6ccc7c(c6)C(=O)N(C6CCC(=O)NC6=O)C7=O)CC5)c4)c3)cs2)c1 (stereo not drawn) [Compound 104] have?
Outgoing: > 75%

Incoming: Lookup CS(=O)(=O)n1ccc(C(=O)N[C@@H](CCOCCCC(=O)NCCS(=O)(=O)CCNc2cccc3c2C(=O)N(C2CCC(=O)NC2=O)C3=O)C(=O)Nc2nc(-c3ccccc3)cs2)c1 (stereo partly drawn) [Compound 253]
Outgoing: < 50%

Incoming: Lookup Cc1ncsc1-c1ccc(CNC(=O)[C@@H]2C[C@@H](O)CN2C(=O)[C@@H](NC(=O)COCCOCCNC(=O)CCCOCC[C@H](NC(=O)c2ccn(S(C)(=O)=O)c2)C(=O)Nc2nc(-c3ccccc3)cs2)C(C)(C)C)cc1 [Compound 249]
Outgoing: < 50%

Incoming: Lookup Cc1ncsc1-c1ccc(CNC(=O)[C@@H]2C[C@@H](O)CN2C(=O)[C@@H](NC(=O)COCCOCC(=O)NCCOc2cc(-c3cccc(-c4csc(NC(=O)CNC(=O)c5ccn(S(C)(=O)=O)c5)n4)c3)ccn2)C(C)(C)C)cc1 [Compound 71]
Outgoing: < 50%

Incoming: Lookup CS(=O)(=O)n1ccc(C(=O)N[C@@H](COCCCC(=O)NCCCCCNc2ccc3c(c2)C(=O)N(C2CCC(=O)NC2=O)C3=O)C(=O)Nc2nc(-c3ccccc3)cs2)c1 (stereo partly drawn) [Compound 187]
Outgoing: < 50%

###

molecular target: HiBit-BRG1 fusion protein (Homo sapiens, UniProt P51532); construct: expressed in transfected cells; assay: HiBiT-BRG1 cell-based degradation assay (Nano-Glo HiBiT Lytic Detection, 24 h); conditions: HeLa, HeLa cells expressing HiBit-BRG1 and LgBit, top dose 30 μM, read-out: BRG1 HiBit Degradation Maximum measured
measured_property: Dmax

Examples with answers:
Cc1cc(C(=O)NCC(=O)Nc2nc(-c3cccc(-c4ccnc(N(C)CC(=O)NCCOCCOCCNc5cccc6c5C(=O)N(C5CCC(=O)NC5=O)C6=O)c4)c3)cs2)cn1S(C)(=O)=O (stereo not drawn) [Compound 122] ... < 50%
Cc1ncsc1-c1ccc(CNC(=O)[C@@H]2C[C@@H](O)CN2C(=O)[C@@H](NC(=O)CN2CCC(C(=O)NCc3cccc(-c4cccc(-c5csc(NC(=O)CNC(=O)c6ccn(S(C)(=O)=O)c6)n5)c4)c3)CC2)C(C)(C)C)cc1 [Compound 138] ... 50 to 75%
CS(=O)(=O)n1ccc(C(=O)NCC(=O)Nc2nc(-c3cccc(-c4ccnc(C5(C(=O)NCCCCCCCCNC(=O)COc6cccc7c6C(=O)N(C6CCC(=O)NC6=O)C7=O)CC5)c4)c3)cs2)c1 (stereo not drawn) [Compound 13] ... 50 to 75%
CS(=O)(=O)n1ccc(C(=O)NCC(=O)Nc2nc(-c3cccc(-c4ccnc(C5(C(=O)N6CCN(CCOc7ccc8c(c7)C(=O)N(C7CCC(=O)NC7=O)C8=O)CC6)CC5)c4)c3)cs2)c1 (stereo not drawn) [Compound 150] ... > 75%
CS(=O)(=O)n1ccc(C(=O)NCC(=O)Nc2nc(-c3cccc(-c4ccnc(C5(C(=O)N6CCN(CC7CCN(c8ccc9c(c8)C(=O)N(C8CCC(=O)NC8=O)C9=O)CC7)CC6)CC5)c4)c3)cs2)c1 (stereo not drawn) [Compound 134] ... > 75%

Incoming: What value of Dmax on HiBit-BRG1 fusion protein (Homo sapiens, UniProt P51532) does CS(=O)(=O)n1ccc(C(=O)NCC(=O)Nc2nc(-c3cccc(-c4ccnc(C5(C(=O)NCCCCNc6ccc7c(c6)C(=O)N(C6CCC(=O)NC6=O)C7=O)CC5)c4)c3)cs2)c1 (stereo not drawn) [Compound 105] have?
Outgoing: > 75%

Incoming: Lookup Cc1ncsc1-c1ccc(CNC(=O)[C@@H]2C[C@@H](O)CN2C(=O)[C@@H](NC(=O)CCCCCCC(=O)NCc2ccc(COC[C@H](NC(=O)c3ccn(S(C)(=O)=O)c3)C(=O)Nc3nc(-c4ccccc4)cs3)cc2)C(C)(C)C)cc1 [Compound 210]
Outgoing: < 50%

Incoming: Lookup CS(=O)(=O)n1ccc(C(=O)N[C@@H](COCCCC(=O)NCCCCNc2ccc3c(c2)C(=O)N(C2CCC(=O)NC2=O)C3=O)C(=O)Nc2nc(-c3ccccc3)cs2)c1 (stereo partly drawn) [Compound 229]
Outgoing: < 50%

Incoming: Lookup CS(=O)(=O)n1ccc(C(=O)N[C@@H](CCOCCCC(=O)NCCCC#Cc2ccc3c(c2)C(=O)N(C2CCC(=O)NC2=O)C3=O)C(=O)Nc2nc(-c3ccccc3)cs2)c1 (stereo partly drawn) [Compound 271]
Outgoing: < 50%
